Where do these numbers come from? They come from the supplement of paper PMC10307832.

test system: NCI-H1650; assay: relative viability (nuclei count vs DMSO), 5 days (fraction); higher = more cells survive; conditions: first compound 0.253 µM

# molecule, relative viability
records = [
    ("C=C1C(=O)O[C@@H](CCCCCCCC)[C@@H]1C(=O)O [C-75] + COc1cc2c(Oc3ccc(NC(=O)C4(C(=O)Nc5ccc(F)cc5)CC4)cc3F)ccnc2cc1OCCCN1CCOCC1 [Foretinib] (partner 0.25 µM)", 1.41),
    ("C=C1C(=O)O[C@@H](CCCCCCCC)[C@@H]1C(=O)O [C-75] + CS(=O)(=O)N1CCN(Cc2cc3nc(-c4cccc5[nH]ncc45)nc(N4CCOCC4)c3s2)CC1 [Pictilisib] (partner 1 µM)", 0.691),
    ("Oc1nc(-c2ccc(C(F)(F)F)cc2)nc2c1CSCC2 [XAV939] + N=C(N)NC(=N)NCCc1ccccc1 [Phenformin] (partner 250 µM)", 0.456),
]
